The reported measurements were obtained from patent US20240391954A1.

- method: Plasma protein binding (Centrifree ultrafiltration)
- Assay type: in vitro ADME
- run.parameters: 1.0 uM
Positions of bridges follow the written chain, without caps; N, C: chain ends. Non-standard residues stand in square brackets, D forms with d. Residues, ends and D or L forms follow the SMILES beside them. dPhe(4-Br) = N[C@H](Cc1ccc(Br)cc1)C(=O)O; dAbu = CC[C@@H](N)C(=O)O
value.kind: fraction unbound at 5 min, 1 µM

CC[C@H]1NC(=O)[C@@H](NC(=O)[C@H](CCCNC(=N)N)NC(C)=O)CSSC[C@@H](C(N)=O)NC(=O)[C@@H](Cc2c[nH]c3ccccc23)NC(=O)[C@H](CCCNC(=N)N)NC(=O)[C@@H](Cc2ccc(Br)cc2)NC(=O)[C@H](CCCNC(=N)N)NC1=O [CTX-1247] (Ac-RC[dAbu]R[dPhe(4-Br)]R[dW]C-NH2; disulfide 2-8 (inferred))
0.47
CC(=O)N[C@@H](CCCNC(=N)N)C(=O)N[C@H]1CSSC[C@@H](C(N)=O)NC(=O)[C@H](Cc2c[nH]c3ccccc23)NC(=O)[C@H](CCCNC(=N)N)NC(=O)[C@@H](Cc2ccccc2)NC(=O)[C@H](CCCNC(=N)N)NC(=O)[C@@H](C)NC1=O [CTX-1211] (Ac-RC[dA]R[dF]RWC-NH2; disulfide 2-8 (inferred))
0.37

# ---- query compound ----
For CC(=O)N[C@@H](CCCN=C(N)N)C(=O)N[C@H]1CSSC[C@H](C(N)=O)NC(=O)[C@H](Cc2c[nH]c3ccccc23)NC(=O)C(CCCN=C(N)N)NC(=O)[C@@H](Cc2ccccc2)NC(=O)[C@H](Cc2cnc[nH]2)NC(=O)[C@@H](C)NC1=O (stereo partly drawn) [CTX-1200, reference compound] the compound record lists fraction unbound at 5 min, 1 µM as 0.43
